Tested on: RARb:RXRa (NR concentration 270 nM, RXRa partner concentration 90 nM)
METHOD: PBM binding z-score (relative to random genomic background probes); higher = stronger binding; sequences stand for … in GC…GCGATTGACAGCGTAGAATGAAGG
Grouping rule (PBM binding z-score): 1 = under 0.9, 2 = from 0.9 up to 3, 3 = 3 and over

| SEQUENCE_CODE | GROUP_LABEL |
| --- | --- |
| CCTTTCGGGTCACGAGGTTATAGCACGACGAGCG | 3 |
| CCGAGTAGGTTATGGGGCAGTCAGGCAACGGTGA | 2 |
| TCTGCTAGGTCAGTTGGTCAGCTAGCGAGCTGCC | 3 |
| ACAGACATGTGAGTGAAGGTAACTCAGCTGGACG | 1 |
| TCTAGTTGGTCAAGGAGGTCACACACGACGGGTA | 3 |

Which PBM binding z-score category applies to `TCTATTAGTTGAAGGGCCACCGACGAGTCCGTTT` here?
2

Would you mind sorting `CGAACTAGGTCATCCAGGACACTGAATACATTGA` into the appropriate category?
3

Assign a bin to `TCGAGTAGGTTAGGGGCAGTCAGAATGGCGTCGA`
2

Given `CCTTACGGGACACTGACAGGTTATAGCATTTGGA` , name the class its PBM binding z-score places it in.
1

====

The entries below come with measured PBM binding z-score values attached.
System: PPARg:RXRa 90nM:30nM, anti-RXR (NR concentration 90 nM, RXRa partner concentration 30 nM)
METHOD: PBM binding z-score (relative to random genomic background probes); higher = stronger binding; sequences stand for … in GC…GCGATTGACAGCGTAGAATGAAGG
Give the figure only, with no unit attached.

Please review the entries below; each comes with its answer.
| SEQUENCE_CODE | TARGET_ENTITY | PBM binding z-score |
| --- | --- | --- |
| ATATGTAGGATACATCCGGGTCATTCAGGCTATG | PPARg:RXRa 90nM:30nM, anti-RXR (NR concentration 90 nM, RXRa partner concentration 30 nM) | 1.28 |
| CATACAGGGTCAGATAGGCCAGAGTAGGGACGGC | PPARg:RXRa 90nM:30nM, anti-RXR (NR concentration 90 nM, RXRa partner concentration 30 nM) | 1.71 |

PBM binding z-score for `CCTCCAAGGTCAATGCTAGGTCAGTGAAAGCATT` ?
3.28

What PBM binding z-score value was documented for this sequence, `TCGAGTAGGTTACCAATGGTGCATTCAGCTTTCT` ?
1.06

Recorded PBM binding z-score for `CCGACTGGGGCCGAAAGGTTACCATACCATCCGG` , please?
1.26

What value of PBM binding z-score has been recorded for this entry: `GCGACTGGGGCATCAGCAGGCTACCATAACTTAA`
-0.389

Field request: PBM binding z-score | item: `AGAAGGAGGTTATACGTAGATCAGGGAAGAAAGT`
0.986

====

System: LXRb homodimer (NR concentration 270 nM)
METHOD: PBM binding z-score (relative to random genomic background probes); higher = stronger binding; sequences stand for … in GC…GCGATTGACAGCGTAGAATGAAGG
Each entry below carries its reported PBM binding z-score.
Give your answer as a number; write no unit.

Some solved cases for reference:
| SEQUENCE_CODE | PBM binding z-score |
| --- | --- |
| ATCTCTAGGTAAAGATAGTTCAGTAAATGCAAAT | 0.936 |
| CCTATTAGTTGACCATCAGGGCAACCGAAGCTCG | 0.434 |
| AGGATGAGGTTAAGATCAGGGAAACAGAATACAT | 0.492 |
| CAAACTAGGTCCCGAAAGGTCAAAGTCGAATGAC | 1.82 |
| GCAACGAGGGCAAAGTTGATAGCATCTGTCGACG | -0.643 |
| CCTTACGGGTCAAGCTTATAGCACGGGTGGTACG | 0.0884 |
| ATCTCTAGGTAAAAGTTCAGTGAATCCCGAGGAT | 0.841 |
| TCAGCTAGGTCAGTTGGTCAGCTAACGAGCTGCC | -0.435 |
| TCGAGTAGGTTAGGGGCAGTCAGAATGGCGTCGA | -0.416 |
| CAGACTGGGGCATAAGGTTACCATAAGCCAGCCC | -0.727 |

PBM binding z-score of `GCGACTGGGGCAATGCAGGTTACCATAAGGTTGG` on LXRb homodimer (NR concentration 270 nM)?
-0.824

====

System: PPARa:RXRa (NR concentration 270 nM, RXRa partner concentration 90 nM)
METHOD: PBM binding z-score (relative to random genomic background probes); higher = stronger binding; sequences stand for … in GC…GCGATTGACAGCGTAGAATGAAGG
Measured PBM binding z-score of individual entries
// return a plain number; no unit text

| SEQUENCE_CODE | TARGET_ENTITY | PBM binding z-score |
| --- | --- | --- |
| ACAGACAGGTGAGTGAAGGTAATTCAGCTGGACG | PPARa:RXRa (NR concentration 270 nM, RXRa partner concentration 90 nM) | -0.0438 |
| CTACTAAGGTGAACAAGGTCGTTGATTACTATTC | PPARa:RXRa (NR concentration 270 nM, RXRa partner concentration 90 nM) | 3.07 |
| GTACCAAGGTGAATAGGTTGTTGATGAGTAGGCG | PPARa:RXRa (NR concentration 270 nM, RXRa partner concentration 90 nM) | 1.27 |
| AGAATGAGGTTATTAAGATCAGGGACTTGCGGTC | PPARa:RXRa (NR concentration 270 nM, RXRa partner concentration 90 nM) | 2.5 |
| CCGAGTAGGTCATGGGGCATTCAGGCAACGGTGA | PPARa:RXRa (NR concentration 270 nM, RXRa partner concentration 90 nM) | 4.92 |

Name the recorded PBM binding z-score for `ATACGTAGGTTAGCTGGGGTCATTCAGACTAGGC` .
4.24

Give the measured PBM binding z-score of `TCTATTAGTTCAAGGGCAACCGACGAGTCCGTTT` .
2.23

Endpoint output: PBM binding z-score of `CCTAGCAGGCCATTCTGGGTCACTCAAGGCTTGA` . Value?
2.61

Any idea what PBM binding z-score was measured for `CCTTACTGGTCACTGACAGGTTATAGCATTTGGA` ?
0.699

Name the reported PBM binding z-score value associated with the sequence `TCTAGTAGGTTACCAATGGGGCATTCAGCTTTCT`
2.14

Given the sequence `CGACCGAGGGCATGAGTTGATAGCAAATGCCGAT` , what is its reported PBM binding z-score?
0.989

What PBM binding z-score value was documented for this sequence, `ATCGAAAGGTCGACGAGGTGTGTATACACCGTTT` ?
4.22

Fill in the blank: the reported PBM binding z-score of `ATATGTAGGTTAAGGGTCATCCAGGTTGGTTCGC` is ____.
6.89

====

Tested on: LXRa homodimer (NR concentration 270 nM)
METHOD: PBM binding z-score (relative to random genomic background probes); higher = stronger binding; sequences stand for … in GC…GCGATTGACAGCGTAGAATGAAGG
OBSERVABLE: PBM binding z-score

Consider the following illustrative entries.
| SEQUENCE_CODE | TARGET_ENTITY | PBM binding z-score |
| --- | --- | --- |
| CAAACTAGGACAAAGGTCAAAGTCGAGCCAACCA | LXRa homodimer (NR concentration 270 nM) | 4.5 |
| GATACAGGGTCAGCTAGAGTCCAGAGTATGGAAA | LXRa homodimer (NR concentration 270 nM) | -0.197 |
| TCATATAGGTAACACAGGTGAAAGTCGGCATCTA | LXRa homodimer (NR concentration 270 nM) | 0.437 |

Attention now shifts to the item below.
Can you look up the measured PBM binding z-score of `TCTTTTAGATCAAAGGTTAAGAAAGCCGAAGCCT` for me?
0.26

====

System: PPARa:RXRa (NR concentration 270 nM, RXRa partner concentration 90 nM)
METHOD: PBM binding z-score (relative to random genomic background probes); higher = stronger binding; sequences stand for … in GC…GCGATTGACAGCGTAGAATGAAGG
Recorded PBM binding z-score values for a group of sequences are listed next.
Give the figure by itself; no unit, no explanation.

The following sequences have reported results that may help.
| SEQUENCE_CODE | PBM binding z-score |
| --- | --- |
| TCTATCAGGCCAGAGGGTCACTCAAGAGGTACGG | 2.51 |
| CAAACTTGGTCAAGGTCAAAGTCGGTTTGTGCCA | 4.46 |

Next sequence, please.
Item under review: `AGTCAAAGTTCATTTAGGTAACGTAAGATATGCT` . Reported PBM binding z-score?
4.58
